# credit: patent US20260242478A1

- ASSAY TARGET: Anti-CD28 Fab (SEQ ID NOs: 696, 697)
- Sequence (VH, as listed by the source, chain 1 of 2): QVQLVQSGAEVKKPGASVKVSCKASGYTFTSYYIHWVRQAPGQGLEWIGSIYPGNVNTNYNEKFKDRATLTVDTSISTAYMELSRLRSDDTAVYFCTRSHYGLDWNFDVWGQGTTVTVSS
- Sequence (VL, as listed by the source, chain 2 of 2): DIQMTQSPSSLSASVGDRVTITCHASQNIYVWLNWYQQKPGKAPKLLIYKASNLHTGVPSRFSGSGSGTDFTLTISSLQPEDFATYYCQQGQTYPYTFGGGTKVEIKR
- ASSAY OVERVIEW: phage ELISA, biotinylated anti-CD28 Fab on neutravidin plate, anti-M13 HRP detection
QUANTITY NAME: Anti-CD28 Fab signal (phage binding ELISA)

BINDER	NUMBER
YCAGHLPEYISKCL (Clonal phage displaying the peptide; not shown: fused to pIII of the bacteriophage) [Phage-638]	2.14
YCDGHQPEYMAKCL (Clonal phage displaying the peptide; not shown: fused to pIII of the bacteriophage) [Phage-637]	2.14
YCAGHLPLYMEKCL (Clonal phage displaying the peptide; not shown: fused to pIII of the bacteriophage) [Phage-641]	2.12
YCDGHIPIYMSKCL (Clonal phage displaying the peptide; not shown: fused to pIII of the bacteriophage) [Phage-639]	2.13
YCEGHSAEYMAKCL (Clonal phage displaying the peptide; not shown: fused to pIII of the bacteriophage) [Phage-634]	2.14
